assay: Solubility of rizatriptan in supercritical CO2, static gravimetric method; type: physicochemical; settings: supercritical CO2, T 338.0 K (text 338.2 K), P 21 MPa, ρCO2 709.59 kg/m^3; read-out: Solubility in supercritical carbon dioxide
MEASURE: solubility at 240 min (µg/mL)

CN(C)CCc1c[nH]c2ccc(Cn3cncn3)cc12 [Rizatriptan, Rizatriptan benzoate] | 176

----------
assay: Solubility of rizatriptan in supercritical CO2, static gravimetric method; assay type: physicochemical; conditions: supercritical CO2, T 308.0 K (text 308.2 K), P 24 MPa, ρCO2 895.66 kg/m^3; read-out: Solubility in supercritical carbon dioxide
MEASURE: solubility at 240 min (µg/mL)

CN(C)CCc1c[nH]c2ccc(Cn3cncn3)cc12 [Rizatriptan, Rizatriptan benzoate] | 181
